Literature survey of pIC50 (system: TBK1 (Homo sapiens)).
pIC50: −log10 of the molar value.
We use 7 as the dividing line for pIC50: on or above the line is condition met, below is condition not met.

Hello, I need to know if N#Cc1ccc(Nc2cc(-c3ccc(OC4CCOCC4)c(C#N)c3)ccn2)nc1 has measured pIC50 not below 7. Thanks! condition not met

And the next one, COc1nc(Nc2cc(-c3ccc(OC4CCOCC4)c(C#N)c3)ncn2)ccc1C1CCN(C)C1 (stereo not shown) ? condition met

And the next one, CN1CCN(Cc2ccc(-c3cnc4[nH]cc(C5=CCN(C(=O)NC6COC6)CC5)c4c3)s2)CC1 ? condition not met

And the next one, CC(C)OC(=O)N1CC=C(c2c[nH]c3ncc(-c4ccc(S(N)(=O)=O)cc4)cc23)CC1 ? condition met

And the next one, CC1CN(C(=O)NC2CCCC2)CC=C1c1c[nH]c2ncc(-c3ccc(CN4CCN(C)CC4)s3)cc12 (stereo not shown) ? condition met

And the next one, CCC(C)NC(=O)N1CC=C(c2c[nH]c3ncc(-c4ccc(CN5CCOCC5)s4)cc23)CC1 (stereo not shown) ? condition met

And the next one, N#Cc1cc(-c2ncnc(Nc3cnn(C(F)F)c3)n2)ccc1O[C@H]1CCNC[C@H]1F ? condition not met

And the next one, COc1cccc(Nc2nccc(-c3ccc(N(C)C)c4c3CNC4=O)n2)c1 ? condition not met

And the next one, N#Cc1cc(-c2ccnc(Nc3cnn(CCn4cccn4)c3)c2)ccc1OC1CCOCC1 ? condition not met

And the next one, O=C(c1cccs1)N1CC=C(c2c[nH]c3ncc(-c4ccc(CN5CCOCC5)s4)nc23)CC1 ? condition met

And the next one, COc1nc(Nc2cc(-c3ccc(OC4CCN(C)CC4(F)F)c(C#N)c3)ncn2)ccc1C(=O)N(C)C (stereo not shown) ? condition met

And the next one, Nc1ncc(-c2ccc(N3CCNCC3)nc2)cc1C(=O)Nc1ccncc1 ? condition not met

----------
Literature survey of IC50 (system: TBK1 (Homo sapiens, UniProt Q9UHD2)).
Sequence (Q9UHD2 whole entry): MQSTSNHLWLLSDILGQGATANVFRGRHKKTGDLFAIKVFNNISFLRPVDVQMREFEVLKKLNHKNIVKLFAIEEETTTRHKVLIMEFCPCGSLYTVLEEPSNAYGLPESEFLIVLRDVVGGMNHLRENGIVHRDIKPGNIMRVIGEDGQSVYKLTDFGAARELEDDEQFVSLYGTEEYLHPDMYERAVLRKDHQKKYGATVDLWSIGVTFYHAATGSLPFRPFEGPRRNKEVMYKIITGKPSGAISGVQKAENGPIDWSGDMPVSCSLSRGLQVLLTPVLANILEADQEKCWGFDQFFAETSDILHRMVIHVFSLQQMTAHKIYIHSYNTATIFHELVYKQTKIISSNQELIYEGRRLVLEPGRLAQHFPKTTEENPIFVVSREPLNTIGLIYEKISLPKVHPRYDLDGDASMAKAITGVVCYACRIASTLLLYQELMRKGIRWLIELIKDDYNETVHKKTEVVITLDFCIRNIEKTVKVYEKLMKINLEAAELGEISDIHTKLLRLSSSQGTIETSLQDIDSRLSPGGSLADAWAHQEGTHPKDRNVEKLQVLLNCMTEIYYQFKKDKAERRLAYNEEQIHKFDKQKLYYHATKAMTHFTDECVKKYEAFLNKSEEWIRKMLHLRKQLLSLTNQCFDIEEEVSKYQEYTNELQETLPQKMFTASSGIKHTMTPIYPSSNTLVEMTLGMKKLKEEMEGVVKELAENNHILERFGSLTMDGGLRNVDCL

Observed IC50 on TBK1 (Homo sapiens, UniProt Q9UHD2) for Cc1nnc(-c2cnc3[nH]cc(C4=CCN(C(=O)OC(C)(C)C)CC4)c3c2)s1 , please. 32 nM

And the next one, COc1nc(Nc2cc(-c3ccc(OC4CCOCC4)c(C#N)n3)ncn2)ccc1C1CCN(C)CC1 ? 1000 to 5000 nM

And the next one, COCCn1cc(-c2cnc(N)c(C(=O)Nc3ccnc4ccoc34)c2)cn1 ? 1200 nM

And the next one, Nc1ncc(-c2ccc(S(N)(=O)=O)cc2)cc1C(=O)Nc1ccncc1 ? 150 nM

And the next one, CCCCCOC(=O)N1CC=C(c2c[nH]c3ncccc23)CC1 ? 10600 nM

And the next one, CC(C)NC(=O)N1CCC(c2c[nH]c3ncc(-c4ccc(CN5CCOCC5)cc4)cc23)=CC1C (centres unmarked) ? 5.2 nM

And the next one, N#Cc1cc(-c2ccnc(Nc3cnn(CC(F)F)c3)n2)ccc1OC1CCOCC1 ? 5 nM

And the next one, COc1ccc(-c2cnc3[nH]cc(C4=CCN(C(=O)c5cccs5)CC4C)c3c2)cc1OC (centres unmarked) ? 180 nM

----------
Literature survey of log10(IC50) (system: TBK1 (Homo sapiens)).
Hello, just confirming the data are log10 of IC50 with units of nM.

Observed log10(IC50) on TBK1 (Homo sapiens) for NC(=O)c1nc(-c2ccncc2)sc1NC(=O)c1ccc(CN2CCOCC2)cc1 , please. 2.81

And the next one, CC(C)(C)c1cc(Nc2cc(-c3ccc(OC4CCOCC4)c(C#N)c3)ccn2)n[nH]1 ? 1.32

And the next one, CS(=O)(=O)c1cccc(-c2cnc3[nH]cc(C4=CCN(C(=O)OC5CCCC5)CC4)c3c2)c1 ? 1.74

And the next one, N#Cc1cc(-c2ccnc(Nc3ccc(CO)cn3)c2)ccc1OCC1CC1 ? 1.61

And the next one, O=C(NC1CCCC1)N1CC=C(c2c[nH]c3ncc(-c4ccc(CCN5CCOCC5)cc4)cc23)CC1 ? 2.04

And the next one, Nc1ncc(-c2ccc(CN3CCCCC3)s2)nc1C(=O)Nc1ccncc1 ? 3.60

And the next one, Nc1nc2[nH]cc(C3=CCN(C(=O)NC4CCCC4)CC3)c2cc1-c1ccc(CN2CCOCC2)s1 ? 3.18

And the next one, CC(C)(C)OC(=O)N1CC=C(c2c[nH]c3ncc(-c4ccc(CN5CCOCC5)cc4)cc23)CC1 ? 2.51

And the next one, CN1CCN(Cc2ccc(-c3cnc4[nH]cc(C5=CCN(C(=O)NC6CC6)CC5)c4c3)s2)CC1 ? 0.56

And the next one, Nc1ncc(-c2ccc(CN3CCOCC3)s2)cc1C(=O)Nc1ccncc1 ? 1.94

And the next one, CC(C)NC(=O)N1CCC(c2c[nH]c3ncc(-c4ccc(CN5CCN(C)CC5)cc4)cc23)=CC1C (stereo not shown) ? 0.45

And the next one, CC(=O)Nc1ccc(-c2ccnc(Nc3cccc(C)c3)n2)c2c1C(=O)NC2 ? 2.54

And the next one, N#Cc1cc(-c2ccnc(Nc3ccc(C4CCOCC4)nn3)c2)ccc1OC1CCOCC1 ? 1.15

And the next one, N#Cc1cc(-c2ccnc(Nc3cnn(C4CCNCC4)c3)c2)ccc1OC1CCOCC1 ? 1.85

And the next one, CNS(=O)(=O)c1ccc(-c2cnc3[nH]cc(C4=CCN(C(=O)NC5CCCC5)CC4)c3c2)cc1 ? 1.58

And the next one, N#Cc1cc(-c2ccnc(Nc3cnc(C4CCNCC4)cn3)c2)ccc1OC1CCOCC1 ? 1.00

And the next one, Cc1cc(NC(=O)c2cc(-c3ccc(CN4CCOCC4)s3)cnc2N)ccn1 ? 1.89

And the next one, NS(=O)(=O)c1cccc(-c2cnc3[nH]cc(C4=CCN(C(=O)OC5CCCC5)CC4)c3c2)c1 ? 1.52

And the next one, NC(=O)c1nc(-c2ccncc2)sc1NC(=O)c1ccc(N2CCOCC2)nc1 ? 3.86

And the next one, NC(=O)c1nc(-c2ccncc2)sc1NC(=O)c1ccc(CN2CCNCC2)cc1 ? 1.98
